- tgt: T1, Peptide 4: Biotin-AGGGGSGGGGSGGGGSAAA-Tyr-acid (N-terminal biotin; C-terminal acid; no PC)
- T1 construct: control peptide without PC
- T1 peptide: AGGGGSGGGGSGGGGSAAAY
- test method notes: scFv ELISA
recorded metric: OD450 (OD450)
Report the figure in OD450 without appending any unit label.

binder	result units	OD450
PcOxP_DB03_H03 (scFv, V domains shown, scFv in periplasmic extract) VH: EVQLLESGGGLVQPGGSLRLSCAASGFTGSDFYMEWVRQAPGKGLEWVAASRNKWNDYTTEYADSVKGRFTISRDNSKNTLYLQMNSLRAEDTAVYYCARDYYGSSYWYFDVWGQGTLVTVSS VL: DIQMTQSPSSLSASVGDRVTITCTASESLSSSKHKHYLAWYQQKPGKAPKLLIYGASSRYSGVPSRFSGSGSGTDFTLTISSLQPEDFATYYCAQFYSYPLTFGGGTKVEIK	OD450	0.07
PcOxP_DB01_E02 (scFv, V domains shown, scFv in periplasmic extract) VH: EVQLLESGGGLVQPGGSLRLSCAASGFTFSDYYMEWVRQAPGKGLEWVAASRNKGNDYTTEYADSVKGRFTISRDNSKNTLYLQMNSLRAEDTAVYYCARDYYGSSYWYFDVWGQGTLVTVSS VL: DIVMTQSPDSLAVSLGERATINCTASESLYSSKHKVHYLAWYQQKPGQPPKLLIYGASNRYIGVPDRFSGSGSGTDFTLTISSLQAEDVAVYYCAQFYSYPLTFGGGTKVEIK	OD450	0.05
PcOxP_DB01_B03 (scFv, V domains shown, scFv in periplasmic extract) VH: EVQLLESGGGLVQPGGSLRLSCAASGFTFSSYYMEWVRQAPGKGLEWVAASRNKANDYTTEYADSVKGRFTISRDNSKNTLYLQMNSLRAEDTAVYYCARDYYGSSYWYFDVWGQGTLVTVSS VL: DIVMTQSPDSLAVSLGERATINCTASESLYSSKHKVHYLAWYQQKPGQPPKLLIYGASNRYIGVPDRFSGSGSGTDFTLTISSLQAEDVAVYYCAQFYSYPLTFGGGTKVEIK	OD450	0.05
PcOxP_DB04_H10 (scFv, V domains shown, scFv in periplasmic extract) VH: EVQLLESGGGLVQPGGSLRLSCAASGATFSDFYVEWVRQAPGKGLEWVAASRNKANDYTTEYADSVKGRFTISRDNSKNTLYLQMNSLRAEDTAVYYCARDYYGSSYWYFDVWGQGTLVTVSS VL: DIQMTQSPSSLSASVGDRVTITCTASESLYSSKHKVHYLAWYQQKPGKAPKLLIYGPSNRYIGVPSRFSGSGSGTDFTLTISSLQPEDFATYYCAQFYSYPLTFGGGTKVEIK	OD450	0.08

Note: attention shifts to another entry.
Identify the reported OD450 for the following entry. PcOxP_DB01_F01 (scFv, V domains shown, scFv in periplasmic extract) VH: EVQLLESGGGLVQPGGSLRLSCAASGFPFSDFYMEWVRQAPGKGLEWVAASRNKANDYTTEYADSVKGRFTISRDNSKNTLYLQMNSLRAEDTAVYYCARDYYGSPYWYFDVWGQGTLVTVSS VL: DIVMTQSPDSLAVSLGERATINCTASESVYSSKNKKHYLAWYQQKPGQPPKLLIYGASNRYIGVPDRFSGSGSGTDFTLTISSLQAEDVAVYYCAQFYTYPLTFGGGTKVEIK
0.05

Each recorded value in this set is attributed to patent US20250320312A1.
